In this section we review reported Therapeutic Index (TI = IC50/EC50) values for a set of compounds.
# Test system: HIV-1 (IIIB isolate)
# assay_method_text: HIV-1 inhibition (p24 antigen ELISA) in infected H9 lymphocytes
# Assay type: cell-based
# measurement_setup: H9 cells; average of at least two experiments
Could you respond with only the numeric value?

Observe how each entry below is paired with its result.
compound	Therapeutic Index (TI = IC50/EC50)
CC(C)[C@@H]1CC[C@]2(COC(=O)CC3(CC(=O)O)CCCC3)CC[C@]3(C)[C@H](CC[C@@H]4[C@@]5(C)CC[C@H](OC(=O)CC6(CC(=O)O)CCCC6)C(C)(C)[C@@H]5CC[C@]43C)[C@@H]12 [Compound 10]	37
C=C(C)[C@@H]1CC[C@]2(COC(=O)CC(C)(C)CC(=O)O)CC[C@]3(C)[C@H](CC[C@@H]4[C@@]5(C)CC[C@H](O)C(C)(C)[C@@H]5CC[C@]43C)[C@@H]12 [Compound 11, 28-O-(3',3'-Dimethylglutaryl)-betulin]	7.8
C=C(C)[C@@H]1CC[C@]2(COC(=O)CC(C)(C)CC(=O)O)CC[C@]3(C)[C@H](CC[C@@H]4[C@@]5(C)CC=CC(C)(C)[C@@H]5CC[C@]43C)[C@@H]12 [Compound 14]	5.2

Continue with the compound presented below.
### Prompt Which Therapeutic Index (TI = IC50/EC50) is reported for this compound? CCC(C)(CC(=O)O)CC(=O)OC[C@]12CC[C@@H](C(C)C)[C@@H]1[C@H]1CC[C@@H]3[C@@]4(C)CC[C@H](OC(=O)CC(C)(CC)CC(=O)O)C(C)(C)[C@@H]4CC[C@@]3(C)[C@]1(C)CC2 (stereo partly shown) [Compound 9]
### Response 248

---

# assay_method_text: Cytotoxicity: cell counts of mock-infected H9 cells
# Assay type: cell-based
# measurement_setup: human, h9 cells
Entries and their CC50 at 96 h
Answer with a number only, understood to be in µM.

molecule	units_symbol	measured_number
C=C(C)[C@@H]1CC[C@]2(C(=O)O)CC[C@]3(C)[C@H](CC[C@@H]4[C@@]5(C)CC[C@H](OC(=O)CC(C)(C)CC(=O)O)C(C)(C)[C@@H]5CC[C@]43C)[C@@H]12 [Compound 2, reference compound]	µM	4.5

Now for the molecule whose CC50 at 96 h we want.
### Prompt Using the record for CCC(C)(CC(=O)O)CC(=O)OC[C@]12CC[C@@H](C(C)C)[C@@H]1[C@H]1CC[C@@H]3[C@@]4(C)CC[C@H](OC(=O)CC(C)(CC)CC(=O)O)C(C)(C)[C@@H]4CC[C@@]3(C)[C@]1(C)CC2 (some centres unmarked) [Compound 9] , report its CC50 at 96 h.
### Response 18.7

---

# assay_method_text: Cytotoxicity: cell counts of mock-infected H9 cells
# Assay type: cell-based
# measurement_setup: human; toxic to 50% of mock-infected H9 cells; 4 days; average of at least two experiments; read-out: Cytotoxicity IC50
CC50 at 96 h listing for selected molecules.
# output: bare number, implied unit µM

Here are 2 molecules together with their reported answers.
molecule	observable	measured_number
Cc1cn([C@H]2C[C@H](N=[N+]=[N-])[C@@H](CO)O2)c(=O)[nH]c1=O [AZT, reference compound]	CC50 at 96 h	500
C=C(C)[C@@H]1CC[C@]2(C(=O)O)CC[C@]3(C)[C@H](CC[C@@H]4[C@@]5(C)CC[C@H](O)C(C)(C)[C@@H]5CC[C@]43C)[C@@H]12 [Compound 1, betulinic acid, reference compound]	CC50 at 96 h	13

Next, consider the following molecule.
### Prompt // query CC50 at 96 h value for entry C=C(C)[C@@H]1CC[C@]2(CO)CC[C@]3(C)[C@H](CC[C@@H]4[C@@]5(C)CC[C@H](O)C(C)(C)[C@@H]5CC[C@]43C)[C@@H]12
### Response 43.7

---

# System: HIV-1 (IIIB isolate)
# assay_method_text: HIV-1 inhibition (p24 antigen ELISA) in infected H9 lymphocytes
# Assay type: cell-based
# measurement_setup: H9 cells; average of at least two experiments
observable: Therapeutic Index (TI = IC50/EC50)

Example cases with answers are listed next.
molecule	Therapeutic Index (TI = IC50/EC50)
CC(C)[C@@H]1CC[C@]2(COC(=O)CC(C)(C)CC(=O)O)CC[C@]3(C)[C@H](CC[C@@H]4[C@@]5(C)CC[C@H](OC(=O)CC(C)(C)CC(=O)O)C(C)(C)[C@@H]5CC[C@]43C)[C@@H]12	2,253
C=C(C)[C@@H]1CC[C@]2(COC(=O)CC(C)(CC)CC(=O)O)CC[C@]3(C)[C@H](CC[C@@H]4[C@@]5(C)CC[C@H](OC(=O)CC(C)(CC)CC(=O)O)C(C)(C)[C@@H]5CC[C@]43C)[C@@H]12 (stereo partly drawn)	3,476

// next item, Therapeutic Index (TI = IC50/EC50) requested
### Prompt Given the molecule C=C(C)[C@@H]1CC[C@]2(COC(=O)CC(C)(C)CC(=O)O)CC[C@]3(C)[C@H](CC[C@@H]4[C@@]5(C)CC[C@H](OC(=O)CC(C)(C)CC(=O)O)C(C)(C)[C@@H]5CC[C@]43C)[C@@H]12 , what is its reported Therapeutic Index (TI = IC50/EC50)?
### Response 21,515
